Examples of compounds with documented Emax follow.
# experimental system: M1 muscarinic receptor (Homo sapiens, UniProt P11229)
# Construct: expressed in transfected cells; host or cells: CHO
# Sequence (P11229 whole entry): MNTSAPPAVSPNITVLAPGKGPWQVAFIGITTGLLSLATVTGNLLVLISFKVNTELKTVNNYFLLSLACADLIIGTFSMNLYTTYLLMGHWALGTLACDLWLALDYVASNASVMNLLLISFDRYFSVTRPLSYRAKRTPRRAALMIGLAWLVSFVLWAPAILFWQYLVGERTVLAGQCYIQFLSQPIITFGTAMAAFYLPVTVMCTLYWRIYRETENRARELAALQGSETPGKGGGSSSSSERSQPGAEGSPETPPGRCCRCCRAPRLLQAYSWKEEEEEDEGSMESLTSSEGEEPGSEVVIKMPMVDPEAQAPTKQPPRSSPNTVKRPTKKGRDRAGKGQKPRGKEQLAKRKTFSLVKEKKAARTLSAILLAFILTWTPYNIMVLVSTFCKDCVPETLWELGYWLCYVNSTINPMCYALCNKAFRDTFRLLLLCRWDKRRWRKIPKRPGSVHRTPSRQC
# procedure details: Functional mobilization of intracellular calcium (FLIPR) in CHO cells expressing M1
# Assay type: cell-based
# stated conditions: CHO; 100% efficacy is the maximum response obtained with the Carbachol control
# Description: Functional Mobilization of Intracellular Calcium to Determine Muscarinic Receptor Activity: […] Compounds are prepared at a 2× fold concentration in a 96-well plate (round bottom, Costar Corning cat#3656), by reconstituting the pre-spotted compounds in bath 1 containing 1 mM probenecid. […] In both assay modes, the fluorescence is recorded for 60 sec (excitation wavelength is […] and emission wavelength 540 nm) using the FLIPR 3 instrument. […]
observation type: Emax

CCOC(=O)N1CCC(N2CCC3(CCC(=O)N(C)c4ccccc43)CC2)CC1    25 to 100%
CN1C(=O)CCC2(CCN(C3C[C@@H]4CC[C@@H]3C4)CC2)c2ccccc21 (stereo partly drawn)    < 25%
CC(=O)N1CCCC2(CCN(C3C[C@@H]4CC[C@@H]3C4)CC2)c2ccccc21 (stereo partly drawn)    < 25%
CN(C)C(=O)N1CCCC2(CCN(CC3CCCCC3)CC2)c2ccccc21    < 25%
O=C1CCC2(CCN(C3CC4CCC(C4)C3)CC2)c2ccccc2N1 (stereo not drawn)    25 to 100%
O=C1CCC2(CCN(C3C[C@@H]4CC[C@@H]3C4)CC2)c2ccccc2N1 (stereo partly drawn)    > 100%

====

Each entry below lists one item and its recorded Emax value.
# experimental system: M1 muscarinic receptor (Homo sapiens, UniProt P11229)
# Construct: expressed in transfected cells; host or cells: CHO
# procedure details: Functional mobilization of intracellular calcium (FLIPR) in CHO cells expressing M1
# Assay type: cell-based
# stated conditions: CHO; 100% efficacy is the maximum response obtained with the Carbachol control
observation type: Emax

CN1C(=O)CCC2(CCN(CCC(C)(C)C)CC2)c2ccccc21    25 to 100%
NC(=O)N1CCCC2(CCN(C3C[C@@H]4CC[C@@H]3C4)CC2)c2ccccc21 (stereo partly drawn)    < 25%
CC(=O)N1CCCC2(CCN(CC3CC4C=CC3C4)CC2)c2ccccc21 (stereo not drawn)    < 25%
CCOC(=O)N1CCC(N2CCC3(CCC(=O)Nc4ccccc43)CC2)CC1    25 to 100%
NC(=O)N1CCCC2(CCN(C3CC4CCC(C4)C3)CC2)c2ccccc21 (stereo not drawn)    25 to 100%
O=C1CCC2(CCN(CC3CC4C=CC3C4)CC2)c2ccccc2N1 (stereo not drawn)    25 to 100%

====

This section presents compounds with their documented Emax values.
# experimental system: M4 muscarinic receptor (Homo sapiens)
# Construct: expressed in transfected cells; host or cells: CHO
# Sequence (P08173 whole entry): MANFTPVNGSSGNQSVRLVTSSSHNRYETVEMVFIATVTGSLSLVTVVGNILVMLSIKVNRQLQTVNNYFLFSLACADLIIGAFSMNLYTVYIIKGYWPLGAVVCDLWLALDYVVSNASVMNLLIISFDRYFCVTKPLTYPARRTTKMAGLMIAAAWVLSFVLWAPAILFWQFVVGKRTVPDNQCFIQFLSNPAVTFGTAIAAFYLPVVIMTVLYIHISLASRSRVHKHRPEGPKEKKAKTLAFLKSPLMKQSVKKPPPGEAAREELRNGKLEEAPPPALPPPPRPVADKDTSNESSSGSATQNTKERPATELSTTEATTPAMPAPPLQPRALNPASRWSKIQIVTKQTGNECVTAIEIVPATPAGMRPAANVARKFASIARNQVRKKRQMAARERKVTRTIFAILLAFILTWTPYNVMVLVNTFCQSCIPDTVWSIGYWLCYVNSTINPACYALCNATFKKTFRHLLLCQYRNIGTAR
# procedure details: Functional mobilization of intracellular calcium (FLIPR) in CHO cells expressing M4
# Assay type: cell-based
# stated conditions: CHO; 100% efficacy is the maximum response obtained with the Carbachol control
observation type: Emax

CN(C)C(=O)N1CCCC2(CCN(C3C[C@@H]4CC[C@@H]3C4)CC2)c2ccccc21 (some centres unmarked) [Compound 33]    < 25%
NC(=O)N1CCCC2(CCN(C3C[C@@H]4CC[C@@H]3C4)CC2)c2ccccc21 (some centres unmarked) [Compound 26]    < 25%
CN(C)C(=O)N1CCCC2(CCN(CC3CC4C=CC3C4)CC2)c2ccccc21 (centres unmarked) [Compound 15]    25 to 100%
CC(=O)N1CCCC2(CCN(C3C[C@@H]4CC[C@@H]3C4)CC2)c2ccccc21 (some centres unmarked) [Compound 17]    < 25%
CN(C)C(=O)N1CCCC2(CCN(CC3CCCCC3)CC2)c2ccccc21 [Compound 27]    < 25%
CCOC(=O)N1CCC(N2CCC3(CCCN(C(C)=O)c4ccccc43)CC2)CC1 [Compound 14]    25 to 100%
CC(=O)N1CCCC2(CCN(CC3CC4C=CC3C4)CC2)c2ccccc21 (centres unmarked) [Compound 9]    25 to 100%
CCOC(=O)N1C2CCC1CC(N1CCC3(CCCN(C(=O)N(C)C)c4ccccc43)CC1)C2 (centres unmarked) [Compound 10]    < 25%
NC(=O)N1CCCC2(CCN(CC3CC4C=CC3C4)CC2)c2ccccc21 (centres unmarked) [Compound 2]    25 to 100%
CC(=O)N1CCCC2(CCN(CCC(C)C)CC2)c2ccccc21 [Compound 34]    < 25%
CN(C)C(=O)N1CCCC2(CCN(C3CC4CCC(C4)C3)CC2)c2ccccc21 (centres unmarked) [Compound 25]    25 to 100%
O=C1CCC2(CCN(C3CC4CCC(C4)C3)CC2)c2ccccc2N1 (centres unmarked) [Compound 29]    25 to 100%
O=C1CCC2(CCN(C3CCCCCC3)CC2)c2ccccc2N1 [Compound 24]    25 to 100%
CCOC(=O)N1CCC(N2CCC3(CCCN(C(=O)N(C)C)c4ccccc43)CC2)CC1 [Compound 23]    25 to 100%
NC(=O)N1CCCC2(CCN(C3CCCCCC3)CC2)c2ccccc21 [Compound 6]    < 25%
O=C1CCC2(CCN(C3C[C@@H]4CC[C@@H]3C4)CC2)c2ccccc2N1 (some centres unmarked) [Compound 1]    25 to 100%
CN(C)C(=O)N1CCCC2(CCN(CCC(C)(C)C)CC2)c2ccccc21 [Compound 31]    25 to 100%
CC(C)(C)CCN1CCC2(CCCN(C(N)=O)c3ccccc32)CC1 [Compound 13]    25 to 100%
CN(C)C(=O)N1CCCC2(CCN(C3CCCCCC3)CC2)c2ccccc21 [Compound 11]    < 25%
CCOC(=O)N1C2CCC1CC(N1CCC3(CCC(=O)N(C)c4ccccc43)CC1)C2 (centres unmarked) [Compound 30]    25 to 100%
CCOC(=O)N1C2CCC1CC(N1CCC3(CCCN(C(C)=O)c4ccccc43)CC1)C2 (centres unmarked) [Compound 28]    25 to 100%
CCOC(=O)N1CCC(N2CCC3(CCCN(C(N)=O)c4ccccc43)CC2)CC1 [Compound 8]    25 to 100%
CN1C(=O)CCC2(CCN(C3CC4CCC(C4)C3)CC2)c2ccccc21 (centres unmarked) [Compound 19]    25 to 100%

Cited source: patent US7786107B2
